Tested on: Inhibin beta A chain (activin A)
EXPERIMENT NOTES: small molecules binding activin A – biochemical, small-molecule microarray, 635 nm fluorescence scan, primary screen (AID 1107);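 also: mouse activin A protein probed at 4.33 µg/mL on printed slides; score merges bound-protein fluorescence near 667 nm with spot signal-to-noise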
CONDITION LABEL: INHBA, higher = more signal

| MOLECULE | composite z-score |
| --- | --- |
| CN(C)C(=O)[C@@]1(CCS(=O)(=O)c2ccccc2)N=C(c2ccc(OCCCO)cc2)O[C@H]1c1ccccc1CN=[N+]=[N-] | 0.69 |
| C=CCC(OC(C)=O)[C@@H]1[C@@H](N(Cc2cc3ccccc3o2)C(=O)Cc2ccc(OC)cc2)c2cc(OCCCO)ccc2N1C(=O)c1ccc(-c2ccccc2)cc1 (stereo partly specified) | 1.34 |
| CC(C)C(CO)N1C(=O)[C@@H]2[C@H]3C(=O)OCC=C[C@H]3OC23C=CCN(Cn2nnc4ccccc42)C(=O)[C@@H]13 (stereo partly specified) | -1.33 |
| CCN(CC)c1ccc(N2CC=CC34O[C@@H]5/C=C\CCCOC(=O)C5[C@H]3C(=O)N(CCCCCCO)[C@@H]4C2=O)cc1 (stereo partly specified) | 0.751 |
| COC(=O)[C@@]1(Cc2ccc(F)cc2)[C@H]2c3cc(C(=O)N4CCCC4)n(Cc4ccccc4)c3C[C@H]2CN1C(=O)c1ccccc1 | 0.628 |
| COCCOC(=O)N1C(=O)[C@@]2(c3cc(C#Cc4ccc(OC)cc4)ccc31)[C@H](C(N)=O)[C@H]1C(=O)O[C@H](c3ccccc3)[C@H](c3ccccc3)N1[C@@H]2c1ccc(OCCO)cc1 | 0.343 |
